target: DLG4_1, P78352; test: holdup assay; parameters: key: below the threshold = too weak to quantify, mostly under pKd 3.1 to 4; settings: plain residues with an end cap or a label only (N-terminal biotin on a linker: ttds)
Sequence (P78352 62-152): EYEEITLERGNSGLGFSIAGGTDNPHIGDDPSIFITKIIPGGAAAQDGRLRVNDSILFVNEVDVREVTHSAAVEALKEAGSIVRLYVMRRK
# if value of pKd reaches 5, tag satisfied; if it stays below, tag not satisfied

Does the reported pKd for SEKHFRETEV [HTLV1-TAX1, P03409] fall at or above the 5 mark?
satisfied

Does the reported pKd for PKRPFVESNV [TANC2, Q9HCD6] fall at or above the 5 mark?
not satisfied

Does the reported pKd for DPRNTQTSQI [ABRAXAS2, Q15018] fall at or above the 5 mark?
not satisfied

Does the reported pKd for LDSQIQETSI [MAP4, P27816] fall at or above the 5 mark?
not satisfied

Does the reported pKd for LCALPKVTTV [AGMAT, Q9BSE5] fall at or above the 5 mark?
not satisfied
